Target: GABARAP-L2 (recombinant, BLI) (human, UniProt P60520 1-117)
Sequence (P60520 whole entry): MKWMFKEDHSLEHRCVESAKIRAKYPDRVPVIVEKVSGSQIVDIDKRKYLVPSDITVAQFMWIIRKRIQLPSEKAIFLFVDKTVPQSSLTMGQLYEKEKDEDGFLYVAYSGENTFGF
Experiment: BLI
Ends that are not written are not given here.
MEASUREMENT NAME: Kd (µM)
One number for each entry, in µM.

Known results for binders:
TDYRPPDDAVFDIITDEELCQIQE (24-mer limits inferred: 10 residues on each side of the core FDII (1280-1283), as in the arrays; exact peptide is in Supplementary Table 2. N- or C-terminal biotin if used in BLI, cellulose-bound if in the array) [FYCO1 WT LIR peptide] :: 17.4
NISQKSDEEDFVKIEDLPLKLTIY (also: biotin, position not given here) [PCM1 V1958I LIR peptide] :: 7.6
NISQKSDEEDFDIIEDLPLKLTIY (also: biotin, position not given here) [PCM1 FDII LIR peptide (BLI)] :: 17

Would you be so kind as to report Kd for each listed record?
1. NISQKSDEEDFVKVTDLPLKLTIY (also: biotin, position not given here) [PCM1 E1959T LIR peptide (BLI)]
2. NISQKSDEEDFVIVEDLPLKLTIY (also: biotin, position not given here) [PCM1 K1957I LIR peptide (BLI)]

[19, 1.19]
